molecular target: human α7 nAChR (Homo sapiens, UniProt P36544); construct: gene CHRNA7; full-length subunit cDNA in pSP64GL, cRNA injected in Xenopus laevis oocytes, homopentamer; test: two-electrode voltage clamp, Xenopus oocytes; format: cell-based; conditions: read-out: EC50
Sequence (P36544 23-502): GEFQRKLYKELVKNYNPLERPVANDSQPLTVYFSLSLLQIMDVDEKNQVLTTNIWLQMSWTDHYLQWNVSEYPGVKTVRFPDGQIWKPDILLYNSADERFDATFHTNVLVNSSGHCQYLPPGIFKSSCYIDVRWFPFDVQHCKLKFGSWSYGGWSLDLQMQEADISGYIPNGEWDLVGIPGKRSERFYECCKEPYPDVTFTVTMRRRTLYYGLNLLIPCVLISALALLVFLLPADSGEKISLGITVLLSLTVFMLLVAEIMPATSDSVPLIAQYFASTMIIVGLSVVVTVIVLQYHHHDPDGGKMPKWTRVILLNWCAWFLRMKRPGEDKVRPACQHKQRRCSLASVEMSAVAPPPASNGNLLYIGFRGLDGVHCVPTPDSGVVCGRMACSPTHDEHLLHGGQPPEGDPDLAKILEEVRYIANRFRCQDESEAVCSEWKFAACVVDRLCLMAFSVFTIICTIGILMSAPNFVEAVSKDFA
Reported EC50 is given for each of the following molecules.
The reply should contain only the number, in µM.

Field: example entries. Status: answers known.
Cc1ccc(C2Nc3ccc(S(N)(=O)=O)cc3C3C=CCC32)cc1 (stereo not shown) ... 27
Cc1cc(C)c(C2Nc3ccc(S(N)(=O)=O)cc3C3C=CCC32)c(C)c1C (stereo not shown) ... 9.1
Cc1ccc(C2Nc3ccc(S(N)(=O)=O)cc3C3C=CCC32)c(C)c1C (stereo not shown) ... 9.8
Cc1cc(C)c(C)c(C2Nc3ccc(S(N)(=O)=O)cc3C3C=CCC32)c1 (stereo not shown) ... 3.9
Cc1cc(C)cc(C2Nc3ccc(S(N)(=O)=O)cc3C3C=CCC32)c1 (stereo not shown) ... 3.7

Exam item: Dear colleague, please send me the reported EC50 for Cc1ccc(C2Nc3ccc(S(N)(=O)=O)cc3C3C=CCC32)c(C)c1 (stereo not shown) when you can.
Marked response: 11

Exam item: Dear colleague, please send me the reported EC50 for Cc1ccccc1C1Nc2ccc(S(N)(=O)=O)cc2C2C=CCC21 (stereo not shown) when you can.
Marked response: 16
